Every entry's value here was drawn from PubChem BioAssay (NCI).

System: SF-268 CNS
experiment.notes: NCI-60 one-dose screen, 48 h (100 = growth as untreated, 0 = no growth, -100 = all killed)
details: 10 µM unless noted
The panel holds about 83,000 compounds, 20% with a hit somewhere; the sample as a whole holds those more often. Activity calls are given as the source filed them. The calls were made as follows: active = growth percent below 10; inactive = the rest.
measurement.kind: growth

compound: CCc1cccc2c3c(sc12)C(c1ccc(Cl)cc1)C(C#N)=C(/N=C/c1ccc(Cl)cc1)O3 (configuration not stated)
growth: 58.3% (inactive)

// for each compound below, give its growth
1. COc1ccccc1NCc1cccn1Cc1ccc(F)cc1
2. CCN1CCN(C(=O)[C@]23CCC(C)(C)C[C@H]2C2=CC[C@@H]4[C@@]5(C)Cc6c([nH]c7ccccc67)C(C)(C)[C@@H]5CC[C@@]4(C)[C@]2(C)CC3)CC1
3. Nc1nc(N)c2c(n1)NC(c1ccc(Cl)cc1)CC(c1ccc(Nc3nc(NCCO)nc(N4CCOCC4)n3)cc1)=N2 (configuration not stated)
4. Cc1ccc(N2C(=O)/C(=C/C=C/c3ccco3)SC2=S)cc1
5. O=C1[C@H]2Cc3c([nH]c4ccccc34)[C@@H](c3c(Cl)cccc3Cl)N2C(=O)CN1C1CCN(CC2CCCCC2)CC1

92.5% (inactive)
90.1% (inactive)
61.8% (inactive)
105% (inactive)
84.4% (inactive)

Can you look up the measured growth of O=C(NNc1nc2cc(F)ccc2n2c(CN3CCCC3)ccc12)c1cnccn1 for me?
22.1% (inactive)
